meta.source: PubChem BioAssay

assay details: small-molecule microarray binders of probe aShh, primary screen, biochemical, biotinylated probe, 635/667 nm fluorescence (AID 1114);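 further: probe is biotin-labelled aShh protein from a stem cell growth factor screen; measures binding of labelled protein to compounds printed on the slide; score merges feature fluorescence at 667 nm with signal-to-noise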
settings: higher = more signal
value kind: composite z-score
Lab note: jot the number down without any unit.

- chemical smiles: "COc1cc2c(cc1OC)CN(C(=O)[C@H]1[C@@H]3C(=O)O[C@@H](c4ccccc4)[C@@H](c4ccccc4)N3[C@@H](c3ccc(O)cc3)[C@]13C(=O)Nc1ccc(C#CC4=CCCCC4)cc13)CC2"
  readout number: -0.0146
- chemical smiles: "COC(=O)c1c(CC[C@@H](CO)NC(=O)N[C@H](Cn2cc(Cc3ccccc3)nn2)C(C)C)oc(C(C)=O)c1C(=O)OC"
  readout number: 0.288

Continue with the compound presented below.
Data point: "COc1ccc([Si](C)(C)[C@@H]2[C@@H](CCO)O[C@]3(C(=O)N(Cc4ccc(N5C(=O)COc6ccccc65)cc4)c4ccccc43)[C@H]2C)cc1" ; composite z-score = -0.0146
